Tested on: MRC-5
assayOverview: Cytotoxic assay (MTT) in MRC-5
Type: cell-based, human
reportedConditions: MRC-5, MTT, selenium concentration
measurementLabel: IC50

>  <compound>
O=[Se]([O-])[O-].[Na+].[Na+] [Na2SeO3, sodium selenite]

>  <observedMeasurement>
10.5 µM

$$$$

----------
Test system: HEK-293
assayOverview: Cytotoxic assay (MTT) in HEK-293
Type: cell-based, human
reportedConditions: HEK-293, MTT, selenium concentration
measurementLabel: IC50 (µM)

>  <molecule>
O=[Se]([O-])[O-].[Na+].[Na+] [Na2SeO3, sodium selenite]

>  <observedMeasurement>
9

$$$$
